- Measurement Notes: differential killing of epithelial or mesenchymal cells, primary screen, imaging, PC-3E GFP, TEM4-18 mCherry, co-culture (AID 1345086);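 further: normalised mesenchymal count divided by normalised epithelial count so high means epithelial killing; cells exposed to compound for 72 h before imaging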
- Condition Parameters: imaging cell counts, at 1 µM, actives lie on both sides, counts scaled to control wells, 1 = unselective
Square brackets hold non-standard residues; d marks the D form. Peptide text beside a SMILES is read from it. Orn = NCCC[CH](N)C(=O)O
I'd appreciate it if you marked entries 1.0 when red/green cell ratio (normalised) is lower than 0.9 and 0.0 when it is not.

Compound	Class Assignment
C=C1C(=O)OC(C(=O)OC)C1(O)CCCCCCCCC (configuration not stated)	0.0
CC(=O)O[C@H]1CC[C@]2(C)C3CC[C@@]4(C)C(CC5O[C@@]6(CCC(C)CO6)[C@@H](C)C54)C3CC[C@@H]2C1 (some centres not stated)	0.0
CC1(C)C2CC(=O)[C@@]3(C)C4=CC(=O)O[C@@H](C(=O)O)[C@]4(C)CCC3[C@@]2(C)[C@@H](O)C[C@H]1O (some centres not stated)	0.0
CC(C)c1ccc2c(c1)CCC1C(C)(C(N)=O)CCCC21C (configuration not stated)	0.0
CC(C)CC1NC(=O)C(CCCN)NC(=O)C(C(C)C)NC(=O)C(Cc2ccc(O)cc2)NC(=O)C(CCC(=O)O)NC(=O)C(CC(=O)O)NC(=O)C(Cc2ccccc2)NC(=O)C(Cc2ccccc2)NC(=O)C2CCCN2C(=O)C(Cc2ccccc2)NC1=O (configuration not stated) (cyclo(DEYV[Orn]LFPFF); configuration not given here)	1.0
CC(C)C(C)/C=C/C(C)C1CCC2C3=CC=C4CC(O)CCC4(C)C3CCC21C (configuration not stated)	1.0
Oc1ccc2ccccc2c1	0.0
O=C(O)CCCCC1SCC2NC(=O)NC21 (configuration not stated)	0.0
CC(C)=CCC/C(C)=C/CC/C(C)=C/CC/C(C)=C/CC/C(C)=C/CC/C(C)=C/CC/C(C)=C/CC/C(C)=C/CC/C(C)=C/CO	0.0
O=C1CC(c2ccc(O)cc2)Oc2ccccc21 (configuration not stated)	0.0
O=C(O)[C@@H](S)[C@@H](S)C(=O)O	0.0
C[C@H](O)CCc1ccc(C(=O)O)nc1	0.0
CC1CC(O)C2C=CC(CC(=O)O1)O2 (configuration not stated)	1.0
CCC(=O)Oc1ccc2c(c1)CCC1C2CC[C@@]2(C)C1CC[C@@H]2OC(=O)CC (some centres not stated)	0.0
O=C(O)CCCCCCCC(O)C(O)CCCCCCO (configuration not stated)	0.0
CC12CCC(=O)C=C1CCC1C2[C@@H](O)CC2(C)C1CC[C@]2(O)C(=O)COP(=O)(O)O (some centres not stated)	0.0
CC(=O)Nc1cc2ccccc2oc1=O	1.0
COC1=C(OC)C(=O)C(C/C=C(\C)CC/C=C(\C)CC/C=C(\C)CC/C=C(/C)CC/C=C(\C)CC/C=C(\C)CC/C=C(\C)CC/C=C(\C)CC/C=C(\C)CCC=C(C)C)=C(C)C1=O	0.0
O=C(Nc1ccc(Cl)cc1)Nc1ccc(CO)cc1	1.0
CC[C@H]1CN2CCc3cc(OC)c(OC)cc3C2C[C@@H]1CC1NCCc2cc(OC)c(OC)cc21 (some centres not stated)	1.0
CC(=O)OC1CC2CCC1(C)C2(C)C (configuration not stated)	0.0
O=C(O)C1CCN(C(=O)OCc2ccccc2)CC1	0.0
CC(C)(Oc1ccc(C(=O)c2ccc(Cl)cc2)cc1)C(=O)O	0.0
CC(=O)O[C@H]1C[C@@H](O)C(C)(C)C2C[C@@H](OC(C)=O)[C@]3(C)C(CC[C@@]4(C)[C@H](c5ccoc5)OC(=O)C5OC543)[C@]21C (some centres not stated)	1.0
COc1cc(/C=C/C(=O)O)cc(OC)c1	0.0
CC(=O)c1ccc2c(c1)Sc1ccccc1N2CCCN1CCN(CCO)CC1	0.0
COc1nc(N)nc2c1ncn2C1O[C@H](CO)[C@@H](O)[C@@H]1O (some centres not stated)	0.0
C[C@H]1O[C@@H](O[C@H]2[C@@H](O)C[C@H](O[C@H]3[C@@H](O)C[C@H](O[C@H]4CC[C@]5(C)C6CC[C@]7(C)[C@@H](C8=CC(=O)OC8)CC[C@]7(O)C6CC[C@@H]5C4)O[C@@H]3C)O[C@@H]2C)C[C@H](O)[C@@H]1O (some centres not stated)	1.0
CC(=O)OC1CCC2(C)C(=CC=C3C2CCC2(C)C3CCC2C(C)/C=C/C(C)C(C)C)C1(C)C (configuration not stated)	0.0
Cc1cc2c(CO)cc(O)cc2o1	0.0
NC(=O)c1cc(F)c(F)cc1F	0.0
Oc1ccc(Oc2cnc3ccc(Cl)cc3n2)cc1	1.0
CC(=O)O[C@H]1C[C@@]2(C)C(CCC3[C@@]4(C)C=CC(=O)[C@@H](C)C4[C@H](OC(C)=O)C(=O)[C@@]32C)/C1=C(/CCC=C(C)C)C(=O)O (some centres not stated)	0.0
